The values you see were collected from patent US20120039802A1.

Molecular target: T1, cMet-Fc fusion protein (extracellular domain of the cMet receptor expressed as an Fc-fusion protein) (human, UniProt P08581 25-932)
T1 construct: extracellular domain; also called soluble cMet-Fc-fusion protein; soluble cMet receptor; not shown: Fc part
T1 sequence (P08581 25-932): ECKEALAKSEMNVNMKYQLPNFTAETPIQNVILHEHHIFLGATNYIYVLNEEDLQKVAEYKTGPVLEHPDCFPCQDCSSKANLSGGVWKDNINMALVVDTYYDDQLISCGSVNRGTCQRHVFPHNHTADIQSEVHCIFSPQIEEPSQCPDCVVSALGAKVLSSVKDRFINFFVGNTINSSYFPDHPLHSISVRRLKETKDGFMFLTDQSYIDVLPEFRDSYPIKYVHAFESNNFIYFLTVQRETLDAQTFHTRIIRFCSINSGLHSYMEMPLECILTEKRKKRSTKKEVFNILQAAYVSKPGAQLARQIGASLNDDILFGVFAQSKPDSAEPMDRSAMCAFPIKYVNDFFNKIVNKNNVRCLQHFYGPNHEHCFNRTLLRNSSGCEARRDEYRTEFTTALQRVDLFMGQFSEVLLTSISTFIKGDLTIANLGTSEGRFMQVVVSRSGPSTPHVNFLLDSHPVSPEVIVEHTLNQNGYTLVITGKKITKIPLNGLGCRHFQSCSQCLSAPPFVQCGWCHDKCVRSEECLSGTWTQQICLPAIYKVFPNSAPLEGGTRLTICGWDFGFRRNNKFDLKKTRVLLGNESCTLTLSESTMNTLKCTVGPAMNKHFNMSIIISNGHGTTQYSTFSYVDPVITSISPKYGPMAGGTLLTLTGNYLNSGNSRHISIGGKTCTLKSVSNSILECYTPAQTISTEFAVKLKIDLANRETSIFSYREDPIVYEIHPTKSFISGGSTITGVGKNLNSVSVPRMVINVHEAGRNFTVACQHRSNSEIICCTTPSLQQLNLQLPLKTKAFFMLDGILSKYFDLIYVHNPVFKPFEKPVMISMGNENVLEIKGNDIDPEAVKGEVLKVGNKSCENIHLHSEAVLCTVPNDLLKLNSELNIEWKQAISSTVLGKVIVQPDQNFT
Test: phage ELISA, cMet-Fc vs TRAIL-Fc
Entries and their Protein ELISA (fold over background) values follow.
outcome-measure: Protein ELISA (fold over background) (fold)

binder: AGDIVCTGHPYFECWSWGT [333-C05 peptide-displaying phage (SEQ ID NO: 068)]
units-of-measure: fold
val: 6.3
//
binder: AGDHYCWEEWWFCWDSGT [482-A12 peptide-displaying phage (SEQ ID NO: 021)]
units-of-measure: fold
val: 3.5
//
binder: AQWNWDMGFMWTTDSAQVQPSM [96-D06 peptide-displaying phage (SEQ ID NO: 489)]
units-of-measure: fold
val: 3
//
binder: AQRPEAHYKLAMSYPIIPRTKT [96-H12 peptide-displaying phage (SEQ ID NO: 452)]
units-of-measure: fold
val: 35.3
//
binder: GSMLMCELWWCRFLAP [569-H10 peptide-displaying phage (SEQ ID NO: 004)]
units-of-measure: fold
val: 3.4
//
binder: AQVGSPMLPSWFSFEANWSS [95-A11 peptide-displaying phage (SEQ ID NO: 456)]
units-of-measure: fold
val: 7
//
binder: AGQFKCAGPPSFACWMTGT [333-F09 peptide-displaying phage (SEQ ID NO: 050)]
units-of-measure: fold
val: 14.8
